Entry source: patent US4568490A

- System: ICR strain mice
- Assay Comment: Pulmonary toxicity (pulmonary fibrosis) in mice, intraperitoneal injection
- Assay type: in vivo
- Assay Setup: 5 mg/kg i.p. once a day for 10 days; reference of the ratio not stated
Reported Incidence of pulmonary fibrosis, Ratio is given for each of the following compounds.

Below, 5 compounds whose answers are already recorded.
>  <Compound>
Cc1c(N)nc(C(CC(N)=O)NCC(N)C(N)=O)nc1C(=O)NC(C(=O)NC(C)C(O)C(C)C(=O)NC(C(=O)NCCc1nc(-c2nc(C(=O)NCCCN(C)CCCN(Cc3ccccc3)Cc3ccccc3)cs2)cs1)C(C)O)C(OC1OC(CO)C(O)C(O)C1OC1OC(CO)C(O)C(OC(N)=O)C1O)c1cnc[nH]1 (stereo not drawn)

>  <Quantity Kind>
Incidence of pulmonary fibrosis, Ratio

>  <Result>
0.32

$$$$
>  <Compound>
Cc1c(N)nc(C(CC(N)=O)NCC(N)C(N)=O)nc1C(=O)NC(C(=O)NC(C)C(O)C(C)C(=O)NC(C(=O)NCCc1nc(-c2nc(C(=O)NCCCN(C)CCCNCC3CCCCCCCCCCCC3)cs2)cs1)C(C)O)C(OC1OC(CO)C(O)C(O)C1OC1OC(CO)C(O)C(OC(N)=O)C1O)c1cnc[nH]1 (stereo not drawn)

>  <Quantity Kind>
Incidence of pulmonary fibrosis, Ratio

>  <Result>
0.00

$$$$
>  <Compound>
Cc1c(N)nc(C(CC(N)=O)NCC(N)C(N)=O)nc1C(=O)NC(C(=O)NC(C)C(O)C(C)C(=O)NC(C(=O)NCCc1nc(-c2nc(C(=O)NCCCN(C)CCCN(Cc3ccc(OCc4ccc(OCc5ccccc5)cc4)cc3)Cc3ccc(OCc4ccc(OCc5ccccc5)cc4)cc3)cs2)cs1)C(C)O)C(OC1OC(CO)C(O)C(O)C1OC1OC(CO)C(O)C(OC(N)=O)C1O)c1cnc[nH]1 (stereo not drawn)

>  <Quantity Kind>
Incidence of pulmonary fibrosis, Ratio

>  <Result>
0.00

$$$$
>  <Compound>
Cc1c(N)nc(C(CC(N)=O)NCC(N)C(N)=O)nc1C(=O)NC(C(=O)NC(C)C(O)C(C)C(=O)NC(C(=O)NCCc1nc(-c2nc(C(=O)NCCCN(C)CCCN(Cc3ccc(OCc4ccc(Cl)c(Cl)c4)c(OCc4ccc(Cl)c(Cl)c4)c3)Cc3ccc(OCc4ccc(Cl)c(Cl)c4)c(OCc4ccc(Cl)c(Cl)c4)c3)cs2)cs1)C(C)O)C(OC1OC(CO)C(O)C(O)C1OC1OC(CO)C(O)C(OC(N)=O)C1O)c1cnc[nH]1 (stereo not drawn)

>  <Quantity Kind>
Incidence of pulmonary fibrosis, Ratio

>  <Result>
0.00

$$$$
>  <Compound>
Cc1c(N)nc(C(CC(N)=O)NCC(N)C(N)=O)nc1C(=O)NC(C(=O)NC(C)C(O)C(C)C(=O)NC(C(=O)NCCc1nc(-c2nc(C(=O)NCCC[N+](C)(C)CCC[N+](C)(C)CCCNCC3CCCCCCC3)cs2)cs1)C(C)O)C(OC1OC(CO)C(O)C(O)C1OC1OC(CO)C(O)C(OC(N)=O)C1O)c1cnc[nH]1 (stereo not drawn)

>  <Quantity Kind>
Incidence of pulmonary fibrosis, Ratio

>  <Result>
0.00

$$$$

In: Recall the recorded Incidence of pulmonary fibrosis, Ratio for Cc1c(N)nc(C(CC(N)=O)NCC(N)C(N)=O)nc1C(=O)NC(C(=O)NC(C)C(O)C(C)C(=O)NC(C(=O)NCCc1nc(-c2nc(C(=O)NCCC[N+](C)(C)CCCN(Cc3ccccc3)Cc3ccccc3)cs2)cs1)C(C)O)C(OC1OC(CO)C(O)C(O)C1OC1OC(CO)C(O)C(OC(N)=O)C1O)c1cnc[nH]1 (stereo not drawn) with ICR strain mice and state it.
Out: 0.00

In: Recall the recorded Incidence of pulmonary fibrosis, Ratio for Cc1c(N)nc(C(CC(N)=O)NCC(N)C(N)=O)nc1C(=O)NC(C(=O)NC(C)C(O)C(C)C(=O)NC(C(=O)NCCc1nc(-c2nc(C(=O)NCCCN3CCN(CCCNCc4ccc(Cl)cc4)CC3)cs2)cs1)C(C)O)C(OC1OC(CO)C(O)C(O)C1OC1OC(CO)C(O)C(OC(N)=O)C1O)c1cnc[nH]1 (stereo not drawn) with ICR strain mice and state it.
Out: 0.00

In: Recall the recorded Incidence of pulmonary fibrosis, Ratio for Cc1c(N)nc(C(CC(N)=O)NCC(N)C(N)=O)nc1C(=O)NC(C(=O)NC(C)C(O)C(C)C(=O)NC(C(=O)NCCc1nc(-c2nc(C(=O)NCCCN(C)CCCN(Cc3cc(OCc4ccccc4)c(OCc4ccccc4)c(OCc4ccccc4)c3)Cc3cc(OCc4ccccc4)c(OCc4ccccc4)c(OCc4ccccc4)c3)cs2)cs1)C(C)O)C(OC1OC(CO)C(O)C(O)C1OC1OC(CO)C(O)C(OC(N)=O)C1O)c1cnc[nH]1 (stereo not drawn) with ICR strain mice and state it.
Out: 0.00

In: Recall the recorded Incidence of pulmonary fibrosis, Ratio for Cc1c(N)nc(C(CC(N)=O)NCC(N)C(N)=O)nc1C(=O)NC(C(=O)NC(C)C(O)C(C)C(=O)NC(C(=O)NCCc1nc(-c2nc(C(=O)NCCC[N+](C)(C)CCC[N+](C)(C)CCCN(Cc3ccccc3)Cc3ccccc3)cs2)cs1)C(C)O)C(OC1OC(CO)C(O)C(O)C1OC1OC(CO)C(O)C(OC(N)=O)C1O)c1cnc[nH]1 (stereo not drawn) with ICR strain mice and state it.
Out: 0.00

In: Recall the recorded Incidence of pulmonary fibrosis, Ratio for Cc1c(N)nc(C(CC(N)=O)NCC(N)C(N)=O)nc1C(=O)NC(C(=O)NC(C)C(O)C(C)C(=O)NC(C(=O)NCCc1nc(-c2nc(C(=O)NCCCN(C)CCCNCc3ccc(Cl)cc3Cl)cs2)cs1)C(C)O)C(OC1OC(CO)C(O)C(O)C1OC1OC(CO)C(O)C(OC(N)=O)C1O)c1cnc[nH]1 (stereo not drawn) with ICR strain mice and state it.
Out: 0.18

In: Recall the recorded Incidence of pulmonary fibrosis, Ratio for Cc1c(N)nc(C(CC(N)=O)NCC(N)C(N)=O)nc1C(=O)NC(C(=O)NC(C)C(O)C(C)C(=O)NC(C(=O)NCCc1nc(-c2nc(C(=O)NCCCN(C)CCCN(Cc3ccc(OCC4CCCCCCC4)cc3)Cc3ccc(OCC4CCCCCCC4)cc3)cs2)cs1)C(C)O)C(OC1OC(CO)C(O)C(O)C1OC1OC(CO)C(O)C(OC(N)=O)C1O)c1cnc[nH]1 (stereo not drawn) with ICR strain mice and state it.
Out: 0.00

In: Recall the recorded Incidence of pulmonary fibrosis, Ratio for CCCC[N+](CCCC)(CCCNC(=O)c1csc(-c2csc(CCNC(=O)C(NC(=O)C(C)C(O)C(C)NC(=O)C(NC(=O)c3nc(C(CC(N)=O)NCC(N)C(N)=O)nc(N)c3C)C(OC3OC(CO)C(O)C(O)C3OC3OC(CO)C(O)C(OC(N)=O)C3O)c3cnc[nH]3)C(C)O)n2)n1)CCCN(Cc1ccccc1)Cc1ccccc1 (stereo not drawn) with ICR strain mice and state it.
Out: 0.00
